test system: LNCaP; experiment: MTT cytotoxicity assay, LNCaP; format: cell-based, human; settings: 48 h
Label class 1 when IC50 < 20 µM; otherwise class 0.

Worked examples follow.
CC(=O)OC[C@H]1O[C@@H](O[C@H]2[C@H](OC(C)=O)[C@@H](OC(C)=O)[C@H](NC(=O)CCC(=O)[O][Pt-2]([NH3+])([NH3+])([OH])([Cl])[Cl])O[C@@H]2COC(C)=O)[C@H](OC(C)=O)[C@@H](OC(C)=O)[C@H]1OC(C)=O [1c] ... class 0
NC1CCCCC1N.O=C1[O][Pt]([OH])([OH])[O]C1=O [4a, reference compound] ... class 0
CC(=O)[O][Pt]([NH2])([Cl])([Cl])([NH]C1CCCCC1)[O]C(C)=O [5a, satraplatin, reference compound] ... class 1
CC(=O)OC[C@H]1O[C@@H](NC(=O)CCC(=O)[O][Pt-2]23([OH])([NH2+][C@@H]4CCCC[C@H]4[NH2+]2)[O]C(=O)C(=O)[O]3)[C@H](OC(C)=O)[C@@H](OC(C)=O)[C@@H]1O[C@H]1O[C@H](COC(C)=O)[C@@H](OC(C)=O)[C@H](OC(C)=O)[C@H]1OC(C)=O [4c] ... class 0
O=C1[O][Pt]2([NH][C@@H]3CCCC[C@H]3[NH]2)[O]C1=O [3a, oxaliplatin, reference compound] ... class 1

QUERY: Bench note: check whether O=C(CCC(=O)[O][Pt-2]12([OH])([NH2+][C@@H]3CCCC[C@H]3[NH2+]1)[O]C(=O)C(=O)[O]2)NCCCO[C@@H]1O[C@H](CO)[C@H](O)[C@H](O)[C@H]1O [5d] shows IC50 below 20 µM
RESULT: class 1

QUERY: Bench note: check whether CC(=O)OC[C@H]1O[C@@H](NC(=O)CCC(=O)[O][Pt-2]([NH3+])([NH3+])([OH])([Cl])[Cl])[C@H](OC(C)=O)[C@@H](OC(C)=O)[C@@H]1O[C@H]1O[C@H](COC(C)=O)[C@@H](OC(C)=O)[C@H](OC(C)=O)[C@H]1OC(C)=O [3c] shows IC50 below 20 µM
RESULT: class 0

* * *

system: A549R; assay: MTT cytotoxicity assay, A549R (cisplatin-resistant); format: cell-based, human; details: MTT, 48 h
# key: entry, value: pIC50
API: returns pIC50 as number; meaning -log10 of concentration in mol/L.

The following molecules have reported results that may help.
O=C1[O][Pt]2([NH][C@@H]3CCCC[C@H]3[NH]2)[O]C1=O [3a, oxaliplatin, reference compound] ... 4.40
CC(=O)OC[C@H]1O[C@@H](O[C@H]2[C@H](OC(C)=O)[C@@H](OC(C)=O)[C@H](NC(=O)CCC(=O)[O][Pt-2]34([OH])([NH2+][C@@H]5CCCC[C@H]5[NH2+]3)[O]C(=O)C(=O)[O]4)O[C@@H]2COC(C)=O)[C@H](OC(C)=O)[C@@H](OC(C)=O)[C@H]1OC(C)=O ... 5.08

Kindly review the next molecule as well.
QUERY: # return recorded pIC50 for input NC1CCCCC1N.O=C1[O][Pt]([OH])([OH])[O]C1=O [4a, reference compound]
RESULT: 4.53

* * *

test system: A549R; test: MTT cytotoxicity assay, A549R (cisplatin-resistant); assay type: cell-based, human; conditions: MTT, 48 h
READOUT TYPE: pIC50
API: returns pIC50 as number; meaning -log10 of concentration in mol/L.

CC(=O)OC[C@H]1O[C@@H](NC(=O)CCC(=O)[O][Pt-2]([NH3+])([NH3+])([OH])([Cl])[Cl])[C@H](OC(C)=O)[C@@H](OC(C)=O)[C@@H]1O[C@H]1O[C@H](COC(C)=O)[C@@H](OC(C)=O)[C@H](OC(C)=O)[C@H]1OC(C)=O [3c] ... 4.83
N.N.[Cl][Pt][Cl] [1a, cisplatin, reference compound] ... 4.45
CC(=O)OC[C@H]1O[C@@H](O[C@H]2[C@H](OC(C)=O)[C@@H](OC(C)=O)[C@H](NC(=O)CCC(=O)[O][Pt-2]([NH3+])([NH3+])([OH])([Cl])[Cl])O[C@@H]2COC(C)=O)[C@H](OC(C)=O)[C@@H](OC(C)=O)[C@H]1OC(C)=O [1c] ... 5.37
CC(=O)OC[C@H]1O[C@@H](NC(=O)CCC(=O)[O][Pt-2]23([OH])([NH2+][C@@H]4CCCC[C@H]4[NH2+]2)[O]C(=O)C(=O)[O]3)[C@H](OC(C)=O)[C@@H](OC(C)=O)[C@@H]1O[C@H]1O[C@H](COC(C)=O)[C@@H](OC(C)=O)[C@H](OC(C)=O)[C@H]1OC(C)=O [4c] ... 4.60

Kindly review the next compound as well.
QUERY: # return recorded pIC50 for input N.N.[Cl-].[Cl-].[OH-].[OH-].[Pt+4] [2a, reference compound]
RESULT: 4.87

* * *

system: HepG-2; experiment: MTT cytotoxicity assay, HepG-2; type: cell-based, human; settings: 48 h
READOUT TYPE: IC50 (µM)
State just the number; it will be interpreted in µM.

QUERY: # return recorded IC50 for input N.N.[Cl][Pt][Cl] [1a, cisplatin, reference compound]
RESULT: 3.94

* * *

tested on: 293T; assay: Viability of normal cells 293T, 48 h incubation assay; assay type: cell-based
READOUT TYPE: pIC50
API: returns pIC50 as number; meaning -log10 of concentration in mol/L.

QUERY: GET pIC50 where system = 293T and item = O=C(CCC(=O)[O][Pt-2]12([OH])([NH2+][C@@H]3CCCC[C@H]3[NH2+]1)[O]C(=O)C(=O)[O]2)NC[C@H]1OC(O)[C@H](O)[C@@H](O)[C@@H]1O (stereo partly shown)
RESULT: 4.92

* * *

Tested on: A549R
Assay: MTT cytotoxicity assay, A549R (cisplatin-resistant)
Type: cell-based, human
Conditions: MTT, 48 h
Description: We evaluated the cytotoxicity of 1c-6c, 1d-7d and of the positive control 1a-5a against a panel of human cancer cells using MTT (3-(4,5-dimethylthiazol-2-yl)-2,5-diphenyltetrazolium bromide) assay. The IC50 values were calculated based on three parallel experiments. […] MTT (5 mg/mL, 20 µL) was added and incubated for 3 h. […] The absorbance was measured at 570 nm using a Bio-Rad 680 microplate reader. The IC50 values were calculated using GraphPad […]
READOUT TYPE: pIC50
API: returns pIC50 as number; meaning -log10 of concentration in mol/L.

CC(=O)[O][Pt]([NH2])([Cl])([Cl])([NH]C1CCCCC1)[O]C(C)=O [5a, satraplatin, reference compound] ... 5.00

Kindly review the next compound as well.
QUERY: GET pIC50 where system = A549R and item = O=C(CCC(=O)[O][Pt-2]12([OH])([NH2+][C@@H]3CCCC[C@H]3[NH2+]1)[O]C(=O)C(=O)[O]2)NCCCO[C@@H]1O[C@H](CO)[C@H](O)[C@H](O)[C@H]1O [5d]
RESULT: 5.25

* * *

tested on: 3T3; experiment: Viability of normal cells 3T3, 48 h incubation assay; type: cell-based
pIC50: −log10 of the molar value.
READOUT TYPE: pIC50

QUERY: # return recorded pIC50 for input O=C(CCC(=O)[O][Pt-2]12([OH])([NH2+][C@@H]3CCCC[C@H]3[NH2+]1)[O]C(=O)C(=O)[O]2)NC[C@H]1OC(O)[C@H](O)[C@@H](O)[C@@H]1O (stereo partly shown)
RESULT: < 4.00

* * *

tested on: HepG-2; test: MTT cytotoxicity assay, HepG-2; format: cell-based, human; details: 48 h
# key: entry, value: pIC50
API: returns pIC50 as number; meaning -log10 of concentration in mol/L.

The following compounds have reported results that may help.
CC(=O)[O][Pt]([NH2])([Cl])([Cl])([NH]C1CCCCC1)[O]C(C)=O [5a, satraplatin, reference compound] ... 5.17
N.N.O=C(CCC(=O)[O][Pt]([OH])([Cl])[Cl])NCCO[C@H]1O[C@H](CO)[C@@H](O)[C@H](O)[C@@H]1O ... 4.88
CC(=O)OC[C@H]1O[C@@H](O[C@H]2[C@H](OC(C)=O)[C@@H](OC(C)=O)[C@H](NC(=O)CCC(=O)[O][Pt-2]34([OH])([NH2+][C@@H]5CCCC[C@H]5[NH2+]3)[O]C(=O)C(=O)[O]4)O[C@@H]2COC(C)=O)[C@H](OC(C)=O)[C@@H](OC(C)=O)[C@H]1OC(C)=O ... 4.23

QUERY: # return recorded pIC50 for input CC(=O)OC[C@H]1O[C@@H](O[C@H]2[C@H](OC(C)=O)[C@@H](OC(C)=O)[C@H](NC(=O)CCC(=O)[O][Pt-2]([NH3+])([NH3+])([OH])([Cl])[Cl])O[C@@H]2COC(C)=O)[C@H](OC(C)=O)[C@@H](OC(C)=O)[C@H]1OC(C)=O
RESULT: 4.93
